Molecular target: MEK1 (Homo sapiens, UniProt Q02750)
Construct: purchased Thermo Fisher Scientific Inc. (MEK1, CRAF); Carna Biosciences, Inc. (ERK2)
Sequence (Q02750 whole entry): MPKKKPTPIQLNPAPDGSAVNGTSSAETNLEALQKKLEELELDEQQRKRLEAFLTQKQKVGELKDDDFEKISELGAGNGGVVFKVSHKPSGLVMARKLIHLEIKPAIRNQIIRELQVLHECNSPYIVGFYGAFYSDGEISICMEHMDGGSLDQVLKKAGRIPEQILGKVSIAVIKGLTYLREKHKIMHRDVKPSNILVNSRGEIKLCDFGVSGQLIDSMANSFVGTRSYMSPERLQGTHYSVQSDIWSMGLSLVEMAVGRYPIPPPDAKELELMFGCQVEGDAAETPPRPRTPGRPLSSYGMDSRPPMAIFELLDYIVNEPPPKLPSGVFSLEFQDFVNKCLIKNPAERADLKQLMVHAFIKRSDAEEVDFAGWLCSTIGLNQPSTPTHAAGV
Test: MEK1-inhibiting activity, fluorescent polarization method (CRAF/MEK1/ERK2 cascade, IMAP)
Type: biochemical
Details: Table 3; read-out: MEK1 IC50
For each of the molecules below, state its log10(IC50).
// units: nM (pre-log); metric: IC50; scale: log10

Field: example entries. Status: answers known.
CNS(=O)(=O)Nc1cccc(Cc2cc(C(N)=O)c(Nc3ccc(I)cc3F)c(F)c2F)n1 [Compound H-5] :: 2.06
CNS(=O)(=O)Nc1nccc(Cc2cc(C(N)=O)c(Nc3ccc(SC)cc3F)c(F)c2F)c1F [Compound A-18] :: 0.90
NC(=O)c1cc(Cc2cccc(NS(=O)(=O)C3COC3)c2F)c(F)c(F)c1Nc1ccc(I)cc1F [Compound E-21] :: 2.28
CC1(NS(=O)(=O)Nc2nccc(Cc3cc(C(N)=O)c(Nc4ccc(C5CC5)cc4F)c(F)c3F)c2F)CCC1 [Compound A-46] :: 2.91
Cn1c(Nc2ccc(C3CC3)cc2F)c(C(N)=O)cc(Cc2ccnc(NS(=O)(=O)NC3CC3)c2F)c1=O [Compound J-4] :: 2.94
COCCNS(=O)(=O)Nc1nccc(Cc2cc(C(=O)NOC)c(Nc3ccc(I)cc3F)c(F)c2F)c1F [Compound A-14] :: 0.30
CNS(=O)(=O)Nc1nccc(Oc2cc(C(N)=O)c(Nc3ccc(I)cc3F)c(F)c2F)c1F [Compound H-4] :: 0.90
CCS(=O)(=O)Nc1cc(Cc2cc(C(N)=O)c(Nc3ccc(I)cc3F)n(C)c2=O)ccn1 [Compound J-12] :: 3.36

Hi, could you look up log10(IC50) for each item in my list?
1. CCNS(=O)(=O)Nc1nccc(Cc2cc(C(N)=O)c(Nc3ccc(I)cc3F)cc2F)c1F [Compound I-2]
2. COCCS(=O)(=O)Nc1cccc(Cc2cc(C(N)=O)c(Nc3ccc(I)cc3F)c(F)c2F)c1F [Compound D-5]

Output:
1.67
2.23

###

Test: Human liver microsome stability
Type: in vitro ADME
Conditions: human liver microsomes, pH 7.4
Decide using microsomal CLint at 0.99 µM alone. Strictly below 20 µL/min/mg: true. Equal to or above 20 µL/min/mg: false.

Examples with answers:
CONC(=O)c1cc(Cc2ccnc(NS(=O)(=O)NC3(C)CCC3)c2F)c(F)c(F)c1Nc1ccc(C2CC2)cc1F [Compound G-6] :: false
CCS(=O)(=O)Nc1nccc(Cc2cc(C(N)=O)c(Nc3ccc(I)cc3F)c(F)c2F)c1F [Compound A-38] :: true
CC1(NS(=O)(=O)Nc2nccc(Cc3cc(C(N)=O)c(Nc4ccc(I)cc4F)c(F)c3F)c2F)CCC1 [Compound A-35] :: true
CC1(NS(=O)(=O)Nc2cccc(Cc3cc(C(=O)NC4CC4)c(Nc4ccc(I)cc4F)c(F)c3F)c2F)CCC1 [Compound D-10] :: false
CNS(=O)(=O)Nc1nccc(Cn2cc(C(N)=O)c(Nc3ccc(I)cc3F)c(F)c2=O)c1F [Compound N-1] :: true
NC(=O)c1cc(Cc2cccc(NS(=O)(=O)CCCF)c2F)c(F)c(F)c1Nc1ccc(I)cc1F [Compound E-15] :: false
CC(C)(C)ONC(=O)c1cc(Cc2cccc(NS(=O)(=O)NC3CC3)c2F)c(F)c(F)c1Nc1ccc(I)cc1Cl [Compound E-12] :: false
CNS(=O)(=O)Nc1nccc(Cc2cc(C(N)=O)c(Nc3ccc(SC)cc3F)c(F)c2F)c1F [Compound A-18] :: false
NC(=O)c1cc(Cc2ccnc(NS(=O)(=O)NC3CCC3)c2F)c(F)c(F)c1Nc1ccc(I)cc1F [Compound A-32] :: true
CNS(=O)(=O)Nc1nccc(Cc2cc(C(=O)NOC)c(Nc3ccc(I)cc3F)n(C)c2=O)c1F [Compound J-8] :: true

Task: Find out if reported microsomal CLint at 0.99 µM for CONC(=O)c1cc(Cc2ccnc(NS(=O)(=O)NC3(C)CCC3)c2F)c(F)c(F)c1Nc1ccc(I)cc1F [Compound A-15] is less than 20 µL/min/mg
Output: false

Task: Find out if reported microsomal CLint at 0.99 µM for CNS(=O)(=O)Nc1cccc(Cc2cc(C(N)=O)c(Nc3ccc(I)cc3F)c(F)c2F)c1 [Compound F-1] is less than 20 µL/min/mg
Output: true

Task: Find out if reported microsomal CLint at 0.99 µM for NC(=O)c1cc(Cc2cccc(NS(=O)(=O)C3CCOCC3)c2F)c(F)c(F)c1Nc1ccc(I)cc1F [Compound E-23] is less than 20 µL/min/mg
Output: false

Task: Find out if reported microsomal CLint at 0.99 µM for CONC(=O)c1cc(Cc2ccnc(NS(C)(=O)=O)c2F)c(F)c(F)c1Nc1ccc(C2CC2)cc1F [Compound G-9] is less than 20 µL/min/mg
Output: false

Task: Find out if reported microsomal CLint at 0.99 µM for COCCNS(=O)(=O)Nc1nccc(Cc2cc(C(=O)NOC(C)(C)C)c(Nc3ccc(I)cc3F)c(F)c2F)c1F [Compound A-9] is less than 20 µL/min/mg
Output: false

The values you see were collected from patent EP4725941A1.
